Catalogue of cytotoxicity at 10 µM values
test: Toxicity liver stage against HepG2, at 10uM; format: cell-based; parameters: test concentration 10 uM, cell line HepG2-A16-CD81EGFP; settings: human, HepG2-A16-CD81EGFP cells; read-out: INHIBITION
assay-readout: cytotoxicity at 10 µM (%)

[[record]]
molecule = "CC(=O)N1CCCN(C(C(=O)O)c2ccccc2OC(F)(F)F)CC1 (stereo unspecified)"
unit_of_measurement = "%"
assay_result = 15.5

[[record]]
molecule = "CC(=O)Nc1ccc(S(=O)(=O)Nc2c(F)cccc2F)cc1"
unit_of_measurement = "%"
assay_result = 12.6

[[record]]
molecule = "Cn1cc(CNCCOc2ccc(F)c(F)c2)c(-c2cccnc2)n1"
unit_of_measurement = "%"
assay_result = -2.53

[[record]]
molecule = "Cc1occc1C(=O)N1CC[C@H]2C[C@@H](c3nnc(C4CC4)o3)O[C@@H]2C1"
unit_of_measurement = "%"
assay_result = -111

[[record]]
molecule = "CN(C(=O)c1ccccc1NCC(=O)O)C(C1CC1)C1CC1"
unit_of_measurement = "%"
assay_result = 1.73

[[record]]
molecule = "Cc1cc(-c2cnc(N3CCCC(C)C3)nc2-c2cccnc2C)on1 (stereo unspecified)"
unit_of_measurement = "%"
assay_result = 7.85


----------
experiment: Toxicity liver stage against HepG2, at 10uM; type: cell-based; parameters: test concentration 10 uM, cell line HepG2-A16-CD81EGFP; conditions: human, HepG2-A16-CD81EGFP cells; read-out: INHIBITION
assay-readout: cytotoxicity at 10 µM (%)

[[record]]
compound = "O=C(c1ccccc1OCC1CC1)N1CCCC(n2ccnc2)C1 (centres undefined)"
assay_readout = "cytotoxicity at 10 µM"
unit_of_measurement = "%"
assay_result = -1.8

[[record]]
compound = "Cc1nc(CCN(C)C(=O)CCNC(=O)c2ccccc2F)no1"
assay_readout = "cytotoxicity at 10 µM"
unit_of_measurement = "%"
assay_result = 6.35

[[record]]
compound = "Cc1ccc2cc(CN(C)Cc3ncc[nH]3)c(=O)[nH]c2c1"
assay_readout = "cytotoxicity at 10 µM"
unit_of_measurement = "%"
assay_result = 1.75

[[record]]
compound = "CC(c1ccon1)N(C)S(=O)(=O)NCc1ccccc1 (centres undefined)"
assay_readout = "cytotoxicity at 10 µM"
unit_of_measurement = "%"
assay_result = -0.174

[[record]]
compound = "CN(C)S(=O)(=O)c1csc(C(=O)N2CCC(C(N)=O)CC2)c1"
assay_readout = "cytotoxicity at 10 µM"
unit_of_measurement = "%"
assay_result = -46.5

[[record]]
compound = "COc1ccc(NC(=O)CNc2ccc(Br)cc2F)cc1"
assay_readout = "cytotoxicity at 10 µM"
unit_of_measurement = "%"
assay_result = 0.795

[[record]]
compound = "CN(Cc1ccco1)C(=O)Nc1cccnc1N1CCCC1"
assay_readout = "cytotoxicity at 10 µM"
unit_of_measurement = "%"
assay_result = -5.3

[[record]]
compound = "Cc1cc(CNC(=O)c2ccc(C(C)N3CCCCC3)o2)[nH]n1 (centres undefined)"
assay_readout = "cytotoxicity at 10 µM"
unit_of_measurement = "%"
assay_result = -12.6

[[record]]
compound = "Cc1ccc(C2COCCN2C(=O)c2ccc(F)c(F)c2)o1 (centres undefined)"
assay_readout = "cytotoxicity at 10 µM"
unit_of_measurement = "%"
assay_result = 4.96

[[record]]
compound = "O=C(CCC(=O)N1CCCC1c1cccs1)N1CCc2sccc2C1 (centres undefined)"
assay_readout = "cytotoxicity at 10 µM"
unit_of_measurement = "%"
assay_result = -8.45

[[record]]
compound = "Cc1cc2ccccc2n1CCC(=O)N1CCN(C)CC1C(N)=O (centres undefined)"
assay_readout = "cytotoxicity at 10 µM"
unit_of_measurement = "%"
assay_result = -1.04

[[record]]
compound = "COCc1nc(C(=O)N(Cc2ccccc2)CC(C)C(=O)O)cs1 (centres undefined)"
assay_readout = "cytotoxicity at 10 µM"
unit_of_measurement = "%"
assay_result = 4

[[record]]
compound = "COCCN1CCCC12CCN(Cc1cncn1C)CC2"
assay_readout = "cytotoxicity at 10 µM"
unit_of_measurement = "%"
assay_result = 8.52

[[record]]
compound = "Cn1ccnc(Nc2ccc3c(c2)CCN3C(=O)c2ccoc2)c1=O"
assay_readout = "cytotoxicity at 10 µM"
unit_of_measurement = "%"
assay_result = -65.2

[[record]]
compound = "C=C(C)CN(CC)C(=O)Nc1ccccc1CN(C)C(C)=O"
assay_readout = "cytotoxicity at 10 µM"
unit_of_measurement = "%"
assay_result = -9.6

[[record]]
compound = "Cc1cnn(CC2CCCN2C(=O)c2csc(C(C)C)n2)c1 (centres undefined)"
assay_readout = "cytotoxicity at 10 µM"
unit_of_measurement = "%"
assay_result = 4.89

[[record]]
compound = "CN1C(=O)CCC12CCN(c1ccc(C#N)cn1)CC2"
assay_readout = "cytotoxicity at 10 µM"
unit_of_measurement = "%"
assay_result = -109

[[record]]
compound = "NC(=O)CNC(c1ccccc1)c1ccc(OC(F)F)cc1 (centres undefined)"
assay_readout = "cytotoxicity at 10 µM"
unit_of_measurement = "%"
assay_result = 58.2

[[record]]
compound = "CCN1C(=O)CC(c2cnn(C)c2)C12CCN(C(=O)c1ccc[nH]1)CC2 (centres undefined)"
assay_readout = "cytotoxicity at 10 µM"
unit_of_measurement = "%"
assay_result = 8.82

[[record]]
compound = "COC(=O)[C@H](C)NC(=O)c1cnc(Cc2ccc(F)cc2)s1"
assay_readout = "cytotoxicity at 10 µM"
unit_of_measurement = "%"
assay_result = -10.9

[[record]]
compound = "CCOCCNC(=O)c1cc(Br)c2c(c1)OCCO2"
assay_readout = "cytotoxicity at 10 µM"
unit_of_measurement = "%"
assay_result = 1.41

[[record]]
compound = "CC(C)OCCS(=O)(=O)N1CCN(Cc2ccco2)CC1"
assay_readout = "cytotoxicity at 10 µM"
unit_of_measurement = "%"
assay_result = -11.3

[[record]]
compound = "Cc1nn(C)c(C)c1C1CCCN1C(=O)CCCc1ccccn1 (centres undefined)"
assay_readout = "cytotoxicity at 10 µM"
unit_of_measurement = "%"
assay_result = 2.43

[[record]]
compound = "CCCn1cc(-c2cc(-c3c[nH]cn3)c(C#N)c(N)n2)c(C)n1"
assay_readout = "cytotoxicity at 10 µM"
unit_of_measurement = "%"
assay_result = 10.3


----------
assay: Toxicity liver stage against HepG2, at 10uM; format: cell-based; design: test concentration 10 uM, cell line HepG2-A16-CD81EGFP; conditions: human, HepG2-A16-CD81EGFP cells; read-out: INHIBITION
assay-readout: cytotoxicity at 10 µM (%)

[[record]]
compound = "CSc1cccc(CNC(=O)C2CC(=O)N(C3CC3)C2)c1 (stereo unspecified)"
assay_result = -12.3

[[record]]
compound = "CCCc1cc(NC(=O)c2ccc(Cl)c(N3CCNC3=O)c2)n[nH]1"
assay_result = -4.55

[[record]]
compound = "c1ccn2cc(CN3CCCC(c4ccn[nH]4)C3)nc2c1 (stereo unspecified)"
assay_result = 6.76

[[record]]
compound = "CCn1cc(NC(=O)c2cccc(CN3C[C@@H](C)O[C@@H](C)C3)c2)nn1"
assay_result = 1.31

[[record]]
compound = "CCc1cnc(N)nc1N[C@@H](C)c1ncccc1C"
assay_result = -3.94

[[record]]
compound = "COc1ccc(C2CCCN2C(=O)c2cc(C(C)C)on2)cc1 (stereo unspecified)"
assay_result = 0.462

[[record]]
compound = "F[C@@H]1CN(Cc2cccnc2)C[C@@H]1OCc1nc2ccccc2[nH]1"
assay_result = 5.22

[[record]]
compound = "CCOc1ccc(S(=O)(=O)NCCc2ccc(N(C)C)cc2)cc1F"
assay_result = -3.56

[[record]]
compound = "CC(=O)Nc1nc(CN2CCCC2Cn2cncn2)cs1 (stereo unspecified)"
assay_result = 0.222

[[record]]
compound = "O=c1oc(-c2cccs2)nn1CC(O)c1ccccc1 (stereo unspecified)"
assay_result = 21.3

[[record]]
compound = "Cc1nn(C)c2c(NC3CCCC3)nc(C3CC3)nc12"
assay_result = -0.801


----------
assay: Toxicity liver stage against HepG2, at 10uM; assay type: cell-based; parameters: test concentration 10 uM, cell line HepG2-A16-CD81EGFP; settings: human, HepG2-A16-CD81EGFP cells; read-out: INHIBITION
Catalogue of cytotoxicity at 10 µM values
assay-readout: cytotoxicity at 10 µM (%)

[[record]]
compound = "CC1=CC[C@@H]2CN(C(=O)c3ccc(-c4nc[nH]n4)cc3)C[C@@H]2C1"
assay_result = 0.417

[[record]]
compound = "CCOCC1CN(C(=O)Cc2ccccn2)Cc2cn(CC)nc21 (stereo unspecified)"
assay_result = 5.06

[[record]]
compound = "Cc1cnc(CNC(=O)NCCOc2ncccc2Cl)s1"
assay_result = 8.35

[[record]]
compound = "CNC(=O)CC1CC2(CCNCC2)c2cc(F)ccc21 (stereo unspecified)"
assay_result = -107

[[record]]
compound = "CCn1nc(C)c2nc(C)nc(NCCc3ccccc3)c21"
assay_result = 25.2

[[record]]
compound = "O=C(O)c1cc2c(nc1O)CC(c1cccs1)CC2=O (stereo unspecified)"
assay_result = 8.32

[[record]]
compound = "COc1ccc(F)cc1CN1CCN(Cc2nccn2C)C(C)C1 (stereo unspecified)"
assay_result = 2.01

[[record]]
compound = "CC(C)N1CCc2ncn(C)c2C1C(=O)N1CCOCC1 (stereo unspecified)"
assay_result = 10.9

[[record]]
compound = "COc1cc2nc(NCc3cc(C)on3)nc(N)c2cc1OC"
assay_result = -3.34

[[record]]
compound = "C/C(NC(=O)c1cccs1)=C1\\C(=O)C[C@@H]2[C@H]1C2(C)C"
assay_result = -1.18

[[record]]
compound = "O=S1(=O)CCCN1Cc1coc(-c2ccc(C(F)(F)F)cc2)n1"
assay_result = -2.04

